# System: Cryptococcus neoformans
# Condition Summary: Concentration 20 uM; ASSAY_TEST Inhibition of Fungal Growth; detection method Resazurin; Absorption (OD600-OD570); plate type 384well; NBS; CORNING #3640
# Description: Antifungal activity against Cryptococcus neoformans H99 ATCC 208821 (CO-ADD:FG_002); MIC in YNB media using NBS plates, by Resazurin OD(600-570)
Potency and affinity values are given separately.
Assay Readout: Inhibition (%)
Report only the number, with the unit % understood.

Compound	Result
CC(C)OC1CCCC(O)C1CC(=O)O (centres undefined)	-7.06
CCC1CN1P1(=O)OCC(C)([N+](=O)[O-])CO1 (centres undefined)	0.43

So what's the measured Inhibition for this one? `C(=C\c1ccncc1)/c1ccncc1`
-3.12

So what's the measured Inhibition for this one? O=C1C[C@@H]2OCC=C3C[N+]4([O-])CC[C@]56c7ccccc7N1[C@H]5[C@H]2[C@H]3C[C@@H]64 (some centres undefined)
-6.02

So what's the measured Inhibition for this one? CC12CCC3C(CC=C4CC(O)CCC43C)C1C/C(=C\N1CCCC1)C2=O (centres undefined)
-14.08

So what's the measured Inhibition for this one? `CCN(CC)c1ccc(C=C2C(=O)NC(=S)NC2=O)cc1`
12.5

So what's the measured Inhibition for this one? `C/C=C/CC1(CC)C(=O)NC(=S)NC1=O`
0.11

So what's the measured Inhibition for this one? COc1ccc2c(c1)NP(=S)(Oc1ccccc1)N2 (centres undefined)
0.61

So what's the measured Inhibition for this one? `NC(=O)c1ccc(C(=O)Nc2ccc([As](=O)(O)O)cc2)cc1`
-8.21

* * *

# Inhibition annotations
# Tested on: Acinetobacter baumannii
# Assay Info: Antibacterial activity against Acinetobacter baumannii ATCC 19606 (CO-ADD:GN_034); MIC in CAMBH media using NBS plates, by Resazurin F(560/590)
# Assay type: functional
# Condition Summary: Concentration 20 uM, ASSAY_TEST Inhibition of Bacterial Growth, detection method Resazurin, Fluorescence (ex560/em590), MEDIA CAMHB, plate type 384well, CORNING #3640, time 18 hr
Report only the number, with the unit % understood.

Illustrative cases are given below, each with its answer.
Molecule	Inhibition [%]
c1ccc2c(c1)Sc1ccccc1N2CC1CN2CCC1CC2 (stereo not drawn)	2.18
CCCC(=O)N(C)C1=Nc2ccc(Cl)cc2C(c2ccccc2)=[N+]([O-])C1	1.65
CN1C2CCC1[C@@H](COC(=O)c1ccccc1)[C@@H](O)C2 (stereo partly drawn)	15.38
O=[As](O)(O)c1ccc(/N=N/c2ccc(O)cc2)cc1	-13.35
CN1CCC(c2c[nH]c3ccccc23)C1 (stereo not drawn)	1.97

So what's the measured Inhibition for this one? `Cc1ccc(N2C(=O)C(=CN)C(=O)N(c3ccc(C)cc3)C2=O)cc1`
4.93

So what's the measured Inhibition for this one? COc1cc2c(cc1O)CC1c3c(cc(O)c(OC)c3-2)CCN1C (stereo not drawn)
-19.02

So what's the measured Inhibition for this one? `C[C@H]1CC[C@H]2NCCN[C@H]2C1`
-12.82

So what's the measured Inhibition for this one? `O=[N+]([O-])c1cc(-c2ccc([As](=O)(O)O)cc2)ccc1[As](=O)(O)O`
-5.02

So what's the measured Inhibition for this one? `C/C=C/CC1(CC)C(=O)NC(=S)NC1=O`
-12.12

So what's the measured Inhibition for this one? `CCN(CC)c1ccc(C=C2C(=O)NC(=S)NC2=O)cc1`
-4.05
